src = the array DNA melting data of Ke et al. (doi:10.1101/2024.01.08.574731)

Quick list: Tm per entry.
experiment: melting temperature; fluorescence melt of hairpins on a sequencing array, two-state fit, raised by 9.35 °C to match UV melts; settings: sodium 0.088 M
Give the value, in units of °C, as a plain number.

Answered cases to consult:
[[record]]
sequence_chain = "GGCAAACGAAAGTTGGCC (((.(((....))).)))"
experimental_readout = "Tm"
units_of_measure = "°C"
result_number = 60.2

[[record]]
sequence_chain = "GCTTTCCGAAAGGACAGC (((.(((....))).)))"
experimental_readout = "Tm"
units_of_measure = "°C"
result_number = 49.9

[[record]]
sequence_chain = "GATAGCGAAAGCTAGATC ((((((....)))..)))"
experimental_readout = "Tm"
units_of_measure = "°C"
result_number = 45.2

[[record]]
sequence_chain = "GAGGGAGGAAACTCCCCC (.(((((....))))).)"
experimental_readout = "Tm"
units_of_measure = "°C"
result_number = 41.9

[[record]]
sequence_chain = "GTCAACGGAAACGTTGGC (.(((((....))))).)"
experimental_readout = "Tm"
units_of_measure = "°C"
result_number = 54.9

[[record]]
sequence_chain = "GTCCCCGGAAACGGGGGC (.(((((....))))).)"
experimental_readout = "Tm"
units_of_measure = "°C"
result_number = 68


If you can, please state the reported Tm value of GCGGTATACCGC ((((....)))) .
60.7

Look up Tm: GTAACCGAAAGGTGTTAC ((((((....)))..)))
35

Any idea what Tm was measured for GAGCCGGGAAACCGGCCC (.(((((....))))).) ?
48.2
